- target: [35S]-TBPS binding, rat brain cortical membranes
- procedure details: Steroid inhibition of TBPS binding ([35S]-TBPS radioligand displacement)
- cond: 3 nM [35S]-TBPS, 5 μM GABA
We begin with a simple list: items and their reported IC50.

Answered examples (2):
* C[C@@]1(O)CC[C@@]2(C)[C@H](CC[C@@H]3[C@@H]2CC[C@]2(C)[C@@H](C(=O)CN4CCOCC4)CC[C@@H]32)C1 | 100 to 500 nM
* C[C@H](C(=O)[C@H]1CC[C@H]2[C@@H]3CC[C@@H]4C[C@](C)(O)CC[C@]4(C)[C@H]3CC[C@]12C)n1nnc2ccccc21 | 100 to 500 nM

Consider now this further compound.
The compound C[C@@H](C(=O)[C@H]1CC[C@H]2[C@@H]3CC[C@H]4C[C@](C)(O)CC[C@]4(C)[C@H]3CC[C@]12C)n1nnc2ccccc21 , tested on [35S]-TBPS binding, rat brain cortical membranes, showed IC50 of 50 to 100 nM

---

- target: α1β2γ2 GABAA receptors (Homo sapiens (Human), UniProt P14867+P47870)
- procedure details: Patch clamp electrophysiology (QPatch) of recombinant α1β2γ2 GABAA receptors in LTK cells
- Type: cell-based
- cond: 10 μM test article, GABA EC20 = 2 μM, read-out: GABA (α1β2γ2) Qpatch in Ltk, % efficacy at 10 μM
- Protocol: Cellular electrophysiology is used to measure the pharmacological properties of our GABAA receptor modulators in heterologous cell systems. […] Whole cell currents were measured with HEKA EPC-10 amplifiers using PatchMaster software or by using the high throughput QPatch platform (Sophion). […] Cells were voltage clamped at a holding potential of −80 mV. […] GABAA receptors α1β2γ2 and α4β3δ% efficacy: “A” 10-100, “B”>100-500, “C”>500; D indicates the data is not available or has not been determined.
readout label: Emax at 10 µM

Below, each entry is followed by its recorded Emax at 10 µM result.
- COC[C@@]1(O)CC[C@@]2(C)[C@@H](CC[C@@H]3[C@@H]2CC[C@]2(C)[C@@H](C(=O)Cn4ccnc4)CC[C@@H]32)C1 [Compound 141]: > 500%
- Cc1cn(CC(=O)[C@H]2CC[C@H]3[C@@H]4CC[C@@H]5C[C@](C)(O)CC[C@]5(C)[C@H]4CC[C@]23C)cn1 [Compound 172]: 100 to 500%
- C[C@@]1(O)CC[C@@]2(C)[C@@H](CC[C@@H]3[C@@H]2CC[C@]2(C)[C@@H](C(=O)Cn4ccc(C#N)n4)CC[C@@H]32)C1 [Compound 121]: > 500%
- CCOc1cnn(CC(=O)[C@H]2CC[C@H]3[C@@H]4CC[C@H]5C[C@@](O)(COC)CC[C@]5(C)[C@H]4CC[C@]23C)c1 [Compound 159]: > 500%
- C[C@@]1(O)CC[C@@]2(C)[C@@H](CC[C@@H]3[C@@H]2CC[C@]2(C)[C@@H](C(=O)Cn4ccnc4C#N)CC[C@@H]32)C1 [Compound 129]: 100 to 500%
- C[C@@]1(O)CC[C@@]2(C)[C@@H](CC[C@@H]3[C@@H]2CC[C@]2(C)[C@@H](C(=O)Cn4cc(N)cn4)CC[C@@H]32)C1 [Compound 152]: 100 to 500%
- C[C@@]1(O)CC[C@@]2(C)[C@@H](CC[C@@H]3[C@@H]2CC[C@]2(C)[C@@H](C(=O)Cn4cnc(C#N)c4)CC[C@@H]32)C1 [Compound 154]: 100 to 500%
- Cc1cncn1CC(=O)[C@H]1CC[C@H]2[C@@H]3CC[C@H]4C[C@](C)(O)CC[C@]4(C)[C@H]3CC[C@]12C [Compound 136]: 100 to 500%

Entry CC(=O)Nc1cnn(CC(=O)[C@H]2CC[C@H]3[C@@H]4CC[C@@H]5C[C@](C)(O)CC[C@]5(C)[C@H]4CC[C@]23C)c1 [Compound 171] — recorded Emax at 10 µM = 100 to 500%

Documented Emax at 10 µM of C[C@@]1(O)CC[C@@]2(C)[C@@H](CC[C@@H]3[C@@H]2CC[C@]2(C)[C@@H](C(=O)Cn4nc5ccc(F)c(F)c5n4)CC[C@@H]32)C1 [Compound 108] : 100 to 500%
